# Test system: EBV lymphoblastoid cells (LCL) viability, plate reader
# test: cytotoxicity in EBV lymphoblastoid cells, dose response, cytotoxicity control, cell-based, plate reader, cherry-picks, set 2 (AID 504882)
Inconclusive results are not listed. Calls of active or inactive are those of the source. The rule behind the calls is not given here.
Pick one and only one: true = active, false = inactive

O=C(Nc1nnc(SCc2ccc(F)cc2)s1)c1ccccn1: true
O=C(Nc1ccc(C(=O)N2CCOCC2)cc1)Nc1cccc(C(F)(F)F)c1: false
Cc1[nH]n(-c2ccccc2)c(=O)c1/C=N/Nc1nncc(-c2ccccc2)n1: true
O=c1c2c(nc3c(-c4cccc(Br)c4)c[nH]n13)CCCC2: true
O=C(NNC(=S)Nc1ccc(Cl)c(Cl)c1)c1ccccn1: true
O=[N+]([O-])c1c(Nc2cccc(O)c2)cc(Cl)c2nonc12: true

Assay outcome for COc1cccc(/C=N/Nc2ncnc(Cl)c2N)c1O : what was it?
true

---

# System: EBV lymphoblastoid cells (LCL) viability, plate reader
# test: cytotoxicity in EBV lymphoblastoid cells, dose response, cytotoxicity control, cell-based, plate reader, cherry-picks, set 2 (AID 504882)
Records with an inconclusive call do not appear. Calls of active or inactive are those of the source. How the calls were made is not given here.
Pick one and only one: active, inactive

Previously resolved entries follow.
COc1cccc(/C=N/NC(=O)c2[nH]nc3c2CCc2ccccc2-3)c1O: active
CC(=NNc1nc2ccccc2o1)c1cc2ccccc2cn1: active
C=C1C(=O)C2=CC1CCC(=O)C1(C)CCC(OC(C)=O)C(C)(C)C1CC2O (stereo not given): active
S=C(NCCCN1CCOCC1)N1CCN(c2nc(-c3ccc(Cl)cc3)cs2)CC1: active
CCOC(=O)c1cnc(-n2nc(C)cc2C)nc1NNc1cc(C)nc(-c2ccccc2)n1: active
C#CCN(C[C@@H]1[C@@H](OC(=O)NCc2ccccc2F)[C@@H](OC(=O)NCc2ccccc2F)Cn2c(=O)ccc(=O)n21)S(=O)(=O)c1ccc(C)cc1: active
c1ccc(-c2cccc(-c3ccccn3)n2)nc1: active
CC(=NNC(=S)N1CCN(c2ccccn2)CC1)c1nccs1: active
CCN(CC)S(=O)(=O)c1cc([N+](=O)[O-])ccc1NNC(=O)Nc1ccc(Cl)c(Cl)c1: active
COc1ccc(-c2ccc(NC(=O)c3ccco3)cc2)nn1: active

Assay outcome for COc1ccc(-c2nc(-c3cccs3)no2)cc1 : what was it?
inactive

Same lookup for COc1ccc(N/N=C/c2c(C(=O)O)ccc3ccccc23)cc1 , please.
active

Same lookup for CCc1ccc(Nc2n[n+](-c3ccccc3)c(-c3c(Cl)cccc3Cl)s2)cc1 , please.
active

Same lookup for COc1cccc(/C=N/Nc2nc3ccccc3[nH]2)c1O , please.
active

Same lookup for CCN(CC)c1ccc(/C=N/Nc2nc3ccccc3[nH]2)c(O)c1 , please.
active

Same lookup for Cc1oc2c(c1C(=O)c1ccc(Cl)cc1)C(=O)C(=O)c1ccccc1-2 , please.
active

Same lookup for CC(=NNC(=S)Nc1ccccc1Cl)c1ccccn1 , please.
active

Same lookup for CC(=NNC(=S)N1CCCCCC1)c1ccccn1 , please.
active

Same lookup for Oc1c(N=NC(=S)Nc2ccccc2F)c2ccccc2n1Cc1cccc(Cl)c1 , please.
inactive

Same lookup for O=C(N/N=C/c1c(O)ccc2ccccc12)c1cccnc1 , please.
active

---

# Tested on: EBV lymphoblastoid cells (LCL) viability, plate reader
# test: cytotoxicity in EBV lymphoblastoid cells, dose response, cytotoxicity control, cell-based, plate reader, cherry-picks, set 2 (AID 504882)
Results filed as inconclusive are left out. Calls of active or inactive are those of the source. The rule behind the calls is not given here.
Pick one and only one: active, inactive

Previously resolved entries follow.
C[n+]1c2n(c3ccccc31)N=C(c1cc(C(C)(C)C)c(O)c(C(C)(C)C)c1)CS2: active
COc1cccc(/C=N/Nc2ncnc3c2ncn3Cc2ccccc2)c1O: active
C=CCn1c(C)c(C(C)=O)c(N2CCN(C(c3ccccc3)c3ccccc3)CC2)nc1=S: inactive
O=C(c1ccccc1)C(CCC(CN1CCOCC1)C(=O)c1ccccc1)CN1CCOCC1 (stereo not given): active

Assay outcome for O=C1C(=C(c2ccccc2)N2CCOCC2)Cc2ccccc21 : what was it?
active

Same lookup for COc1nc(Nc2nc3ccccc3c(=O)[nH]2)nc2ccc(C)cc12 , please.
active

Same lookup for COc1ccc(-c2[nH]ncc2-c2ccc3c(c2)OCCO3)c(O)c1 , please.
inactive

Same lookup for C=C(C(=O)c1ccccc1)C(CC(=O)c1ccccc1)c1ccccc1 (stereo not given) , please.
active

Same lookup for O=C(CCl)N(c1ccc(Cl)cc1)c1c[nH]c2ccccc12 , please.
active

Same lookup for Cc1ccc2[nH]c(C(=O)N/N=C/c3ccccc3O)c(C)c2c1 , please.
active
